biological target: CYP2C8 (Homo sapiens); experiment: CYP2C8 activity inhibition assay in human liver microsomes (paclitaxel hydroxylation, LC-MS/MS); conditions: IC50 CYP2C8, HLM, paclitaxel 5 µM, remdesivir
Sequence (P10632 whole entry): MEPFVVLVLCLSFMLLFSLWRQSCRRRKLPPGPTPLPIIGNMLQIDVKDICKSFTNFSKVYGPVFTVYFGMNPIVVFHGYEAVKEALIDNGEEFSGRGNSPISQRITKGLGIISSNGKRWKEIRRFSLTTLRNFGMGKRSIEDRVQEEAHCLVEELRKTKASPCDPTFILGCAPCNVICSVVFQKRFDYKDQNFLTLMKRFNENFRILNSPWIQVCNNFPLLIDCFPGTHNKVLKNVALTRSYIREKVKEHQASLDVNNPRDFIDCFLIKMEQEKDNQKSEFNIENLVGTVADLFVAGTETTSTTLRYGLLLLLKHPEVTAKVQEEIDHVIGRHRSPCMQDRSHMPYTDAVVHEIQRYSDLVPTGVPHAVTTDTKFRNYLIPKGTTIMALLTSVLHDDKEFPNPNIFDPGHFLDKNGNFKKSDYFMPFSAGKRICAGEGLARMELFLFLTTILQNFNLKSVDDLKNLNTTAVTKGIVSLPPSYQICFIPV
attribute.measured: IC50 (nM)
Give the value in nM but do not write nM after it.

Documented IC50 of CCC(CC)COC(=O)[C@H](C)N[P@](=O)(OC[C@H]1O[C@@](C#N)(c2ccc3c(N)ncnn23)[C@H](O)[C@@H]1O)Oc1ccccc1 [Remdesivir, remdesivir] : 268

---

molecular target: CYP2D6 (Homo sapiens, UniProt P10635)
Sequence (P10635 whole entry): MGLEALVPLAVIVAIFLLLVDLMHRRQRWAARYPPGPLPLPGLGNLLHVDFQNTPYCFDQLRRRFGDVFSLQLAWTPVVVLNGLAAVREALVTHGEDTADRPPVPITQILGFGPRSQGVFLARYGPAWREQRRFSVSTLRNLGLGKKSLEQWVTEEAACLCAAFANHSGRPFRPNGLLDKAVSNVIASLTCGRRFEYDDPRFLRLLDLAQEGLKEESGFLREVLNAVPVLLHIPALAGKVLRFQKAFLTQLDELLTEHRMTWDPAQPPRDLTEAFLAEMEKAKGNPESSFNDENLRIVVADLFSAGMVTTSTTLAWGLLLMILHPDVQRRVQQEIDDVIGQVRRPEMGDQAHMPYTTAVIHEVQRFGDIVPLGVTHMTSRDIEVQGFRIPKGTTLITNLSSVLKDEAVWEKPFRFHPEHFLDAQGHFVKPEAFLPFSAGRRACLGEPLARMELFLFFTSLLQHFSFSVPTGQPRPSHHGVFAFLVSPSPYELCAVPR
attribute.measured: pIC50
# pIC50 is unitless: minus log10 of the molar concentration; print number only

pIC50 recorded for this molecule, CCC(CC)COC(=O)[C@H](C)N[P@](=O)(OC[C@H]1O[C@@](C#N)(c2ccc3c(N)ncnn23)[C@H](O)[C@@H]1O)Oc1ccccc1 , is 6.27
